Source: patent US20260125382A1

Provide the reported Enzyme degradation CDK9 (% remaining) @ 1 μM of each item.
biological target: CDK9 (Homo sapiens, UniProt P50750); construct: endogenous in cells; host or cells: MDA-MB-231; assay: CDK protein degradation activity (Western blotting), CDK9; format: cell-based; details: MDA-MB-231 cells, 1 μM, 16 hours, Western blot
Sequence (P50750 whole entry): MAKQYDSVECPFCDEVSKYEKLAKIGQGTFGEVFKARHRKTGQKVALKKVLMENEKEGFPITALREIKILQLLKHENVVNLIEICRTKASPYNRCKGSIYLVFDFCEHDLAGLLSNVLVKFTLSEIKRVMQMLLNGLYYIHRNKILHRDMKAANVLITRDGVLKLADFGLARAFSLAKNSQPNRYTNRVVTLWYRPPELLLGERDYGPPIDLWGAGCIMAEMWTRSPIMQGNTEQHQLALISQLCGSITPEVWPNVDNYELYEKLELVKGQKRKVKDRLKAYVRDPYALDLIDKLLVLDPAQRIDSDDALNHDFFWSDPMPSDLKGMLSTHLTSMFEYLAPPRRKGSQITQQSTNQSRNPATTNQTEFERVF

Query O=C1CC[C@H](N2C(=O)c3cc(F)c(N4CCC(C(=O)N5CCN(CC6CCN(c7ccc(Nc8ncnc9c8ncn9[C@H]8C[C@@H](NC(=O)c9c(Cl)cccc9Cl)C8)cc7)CC6)CC5)CC4)cc3C2=O)C(=O)N1 yields Enzyme degradation CDK9 (% remaining) @ 1 μM of 0/0/0%

Query O=C1CC[C@H](N2C(=O)c3cc(F)c(N4CCC(C(=O)N5CCC(CN6CCN(c7ccc(Nc8ncnc9c8ncn9C8CC(NC(=O)c9cccc(F)n9)C8)cc7)CC6)CC5)CC4)cc3C2=O)C(=O)N1 (stereo partly drawn) yields Enzyme degradation CDK9 (% remaining) @ 1 μM of 0/0/0%

Query O=C1CCC(c2ccc(OCC(=O)N3CCC4(CC3)CC(N3CCN(c5ccc(Nc6ncnc7c6ncn7[C@H]6C[C@@H](NC(=O)Cc7ccccc7)C6)cc5)CC3)C4)cc2)C(=O)N1 (stereo partly drawn) yields Enzyme degradation CDK9 (% remaining) @ 1 μM of 0/0/0%

* * *

target: CDK2 (Homo sapiens, UniProt P24941); construct: endogenous in cells; host or cells: MDA-MB-231; assay: CDK protein degradation activity (Western blotting), CDK2; assay type: cell-based; conditions: MDA-MB-231 cells, 10 μM, 16 hours, Western blot
Provide the reported Enzyme degradation CDK2 (% remaining) @ 10 μM of each item.

Query Cc1cccc(C(=O)N[C@H]2C[C@@H](n3cnc4c(NCCC5CCN(CC6CCN(C(=O)C7CCN(c8cc9c(cc8F)C(=O)N(C8CCC(=O)NC8=O)C9=O)CC7)CC6)CC5)ncnc43)C2)n1 (stereo partly drawn) yields Enzyme degradation CDK2 (% remaining) @ 10 μM of 50/50/50%

Query Cc1cccc(C(=O)NC2CC(n3cnc4c(NC5CCN(CCOC6CCN(c7cccc8c7C(=O)N([C@H]7CCC(=O)NC7=O)C8=O)CC6)CC5)ncnc43)C2)n1 (stereo partly drawn) yields Enzyme degradation CDK2 (% remaining) @ 10 μM of 100/100/100%

Query Cc1cccc(C(=O)NC2CC(n3cnc4c(Nc5ccc(N6CCN(CC7CCN(c8ccc9nnn([C@H]%10CCC(=O)NC%10=O)c(=O)c9c8)CC7)CC6)cc5)ncnc43)C2)n1 (stereo partly drawn) yields Enzyme degradation CDK2 (% remaining) @ 10 μM of 10/10/10%

* * *

Target: CDK9 (Homo sapiens)
Construct: endogenous in cells; host or cells: MDA-MB-231
Test: CDK protein degradation activity (Western blotting), CDK9
Type: cell-based
Details: MDA-MB-231 cells, 10 μM, 16 hours, Western blot
Method: In order to evaluate the CDK protein degradation activity of the compounds according to the present invention, the following experiment was conducted. MDA-MB-231 cells were seeded at 5×10^5 cells per well in a 6-well plate. The next day, the compounds were treated in each well to achieve final concentrations of 100 nM, 1 μM, and 10 μM. […] Cell lysates were quantified and separated by size using sodium dodecyl sulfate-polyacrylamide gel electrophoresis (SDS-PAGE). […]
Provide the reported Enzyme degradation CDK9 (% remaining) @ 10 μM of each item.

Query O=C1CC[C@H](N2C(=O)c3cccc(NCC(=O)N4CCC(CCCN5CCN(c6ccc(Nc7ncnc8c7ncn8[C@H]7C[C@@H](NC(=O)Cc8ccccc8)C7)cc6)CC5)CC4)c3C2=O)C(=O)N1 [Compound 253] yields Enzyme degradation CDK9 (% remaining) @ 10 μM of 0/0/0%

Query O=C1CC[C@H](N2C(=O)c3cc(F)c(N4CCC(C(=O)N5CCN(CC6CCN(c7ccc(Nc8ncnc9c8ncn9[C@H]8C[C@@H](NC(=O)c9c(Cl)cccc9Cl)C8)cc7)CC6)CC5)CC4)cc3C2=O)C(=O)N1 [Compound 475] yields Enzyme degradation CDK9 (% remaining) @ 10 μM of 0/0/0%

Query N#Cc1cccc(C(=O)N[C@H]2C[C@@H](n3cnc4c(Nc5ccc(N6CCN(CC7CCN(c8ccc9nnn([C@H]%10CCC(=O)NC%10=O)c(=O)c9c8)CC7)CC6)cc5)ncnc43)C2)n1 (racemic) [Compound 418] yields Enzyme degradation CDK9 (% remaining) @ 10 μM of 0/0/0%

* * *

target: CDK9 (Homo sapiens); construct: endogenous in cells; host or cells: MDA-MB-231; assay: CDK protein degradation activity (Western blotting), CDK9; format: cell-based; conditions: MDA-MB-231 cells, 1 μM, 16 hours, Western blot
REPORTED_METRIC: Enzyme degradation CDK9 (% remaining) @ 1 μM

Field Enzyme degradation CDK9 (% remaining) @ 1 μM (CDK9 (Homo sapiens)), entry Cc1cccc(C(=O)NC2CC(n3cnc4c(NCCCN5CCN(CC6CCN(C(=O)CNc7ccc8c(c7)C(=O)N([C@@H]7CCC(=O)NC7=O)C8=O)CC6)CC5)ncnc43)C2)n1 (stereo partly drawn) [Compound 145] : 0/0/0%

Field Enzyme degradation CDK9 (% remaining) @ 1 μM (CDK9 (Homo sapiens)), entry O=C1CC[C@H](N2C(=O)c3ccc(N4CC(C(=O)N5CCC(CN6CCN(c7ccc(Nc8ncnc9c8ncn9[C@H]8C[C@@H](NC(=O)c9cccc(C(F)(F)F)n9)C8)cc7)CC6)CC5)C4)cc3C2=O)C(=O)N1 [Compound 469] : 0/0/0%

Field Enzyme degradation CDK9 (% remaining) @ 1 μM (CDK9 (Homo sapiens)), entry O=C1CC[C@H](N2C(=O)c3cc(F)c(N4CCC(C(=O)N5CCC6(CC5)CC(N5CCN(c7ccc(Nc8ncnc9c8ncn9C8CC(NC(=O)c9c(Cl)cccc9Cl)C8)cc7)CC5)C6)CC4)cc3C2=O)C(=O)N1 (stereo partly drawn) [Compound 464] : 0/0/0%

* * *

Provide the reported Enzyme degradation CDK2 (% remaining) @ 1 μM of each item.
target: CDK2 (Homo sapiens, UniProt P24941); construct: endogenous in cells; host or cells: MDA-MB-231; test: CDK protein degradation activity (Western blotting), CDK2; assay type: cell-based; conditions: MDA-MB-231 cells, 1 μM, 16 hours, Western blot

Query O=C1CCC(N2C(=O)c3cccc(N4CCC(CN5CCC(CNc6ncnc7c6ncn7[C@H]6C[C@@H](NC(=O)Cc7ccccc7)C6)CC5)CC4)c3C2=O)C(=O)N1 (stereo partly drawn) [Compound 180] yields Enzyme degradation CDK2 (% remaining) @ 1 μM of 30/30/30%

Query O=C1CC[C@@H](c2cccc(OCC(=O)N3CCC(OCCN4CCN(c5ccc(Nc6ncnc7c6ncn7C6CC(NC(=O)Cc7ccccc7)C6)cc5)CC4)CC3)c2)C(=O)N1 (stereo partly drawn) [Compound 251] yields Enzyme degradation CDK2 (% remaining) @ 1 μM of 0/0/0%

Query O=C1CC[C@H](N2C(=O)c3ccc(N4CC(C(=O)N5CCC(CN6CCN(c7ccc(Nc8ncnc9c8ncn9[C@H]8C[C@@H](NC(=O)c9c(Cl)cccc9Cl)C8)cc7)CC6)CC5)C4)cc3C2=O)C(=O)N1 [Compound 394] yields Enzyme degradation CDK2 (% remaining) @ 1 μM of 20/20/20%

* * *

target: CDK9 (Homo sapiens); construct: endogenous in cells; host or cells: MDA-MB-231; assay: CDK protein degradation activity (Western blotting), CDK9; type: cell-based; settings: MDA-MB-231 cells, 10 μM, 16 hours, Western blot
Provide the reported Enzyme degradation CDK9 (% remaining) @ 10 μM of each item.

Query O=C1CCC(n2nnc3ccc(N4CC(N5CCN(c6ccc(Nc7ncnc8c7ncn8[C@H]7C[C@@H](NC(=O)Cc8ccccc8)C7)cc6)CC5)C4)cc3c2=O)C(=O)N1 (stereo partly drawn) yields Enzyme degradation CDK9 (% remaining) @ 10 μM of 30/30/30%

Query Cc1cccc(C(=O)NC2CC(n3cnc4c(Nc5ccc(N6CCN(C7CC8(CCN(C(=O)C9CCN(c%10ccc%11c(c%10)C(=O)N([C@H]%10CCC(=O)NC%10=O)C%11=O)CC9)CC8)C7)CC6)cc5)ncnc43)C2)n1 (stereo partly drawn) yields Enzyme degradation CDK9 (% remaining) @ 10 μM of 0/0/0%

Query Cc1cccc(C(=O)N[C@H]2C[C@@H](n3cnc4c(Nc5ccc(N6CCN(C7CC8(CCN(c9cc%10c(cc9F)C(=O)N([C@H]9CCC(=O)NC9=O)C%10=O)CC8)C7)CC6)cc5)ncnc43)C2)n1 yields Enzyme degradation CDK9 (% remaining) @ 10 μM of 0/0/0%

Query O=C1CC[C@H](N2C(=O)c3ccc(N4CCC(CC(=O)N5CCN(c6ccc(Nc7ncnc8c7ncn8[C@H]7C[C@@H](NC(=O)Cc8ccccc8)C7)cc6)CC5)CC4)cc3C2=O)C(=O)N1 yields Enzyme degradation CDK9 (% remaining) @ 10 μM of 50/50/50%

Query O=C1CC[C@H](N2C(=O)c3cccc(NCC(=O)N4CCC(CN5CCC(CNc6ncnc7c6ncn7C6CC(NC(=O)Cc7ccccc7)C6)CC5)CC4)c3C2=O)C(=O)N1 (stereo partly drawn) yields Enzyme degradation CDK9 (% remaining) @ 10 μM of 0/0/0%

Query O=C1CC[C@H](N2C(=O)c3ccc(N4CC(C(=O)N5CCC(N6CCN(c7ccc(Nc8ncnc9c8ncn9[C@H]8C[C@@H](NC(=O)Cc9ccccc9)C8)cc7)CC6)CC5)C4)cc3C2=O)C(=O)N1 yields Enzyme degradation CDK9 (% remaining) @ 10 μM of 0/0/0%
